# experimentalDetails: Inhibition of interleukin-23 binding to rat interleukin-23 receptor incubated for 2 hrs by competitive binding ELISA
*1 amine or outer side, *2 acyl side, *3 side chain or, on linkers, in order; H or OH if unused. Where a SMILES comes first, the peptide text is derived from it. Bridges are numbered along the chain shown (N, C = ends). [ ]: non-standard residue; d: D form. Abu(4-yl) = O=C([C@H](CC[*:3])N[*:1])[*:2]; 2Nal = N[C@@H](Cc1ccc2ccccc2c1)C(=O)O; AEF = NCCOc1ccc(C[C@H](N)C(=O)O)cc1; Aib = CC(C)(N)C(=O)O
experimentalReadout: IC50

{"molecule": "CC(=O)NCCCC[C@](C)(NC(=O)[C@H](Cc1ccc2ccccc2c1)NC(=O)[C@H](Cc1ccc(OCCNC(C)=O)cc1)NC(=O)[C@@H]1CSCC[C@H](NC(C)=O)C(=O)N[C@@H](CCC(N)=O)C(=O)N[C@@H]([C@@H](C)O)C(=O)N[C@@H](Cc2c[nH]c3ccccc23)C(=O)N[C@@H](CCC(N)=O)C(=O)N1)C(=O)N[C@@H](CCC(=O)O)C(=O)N[C@@H](CC(N)=O)C(=O)N[C@@H](CC(N)=O)C(N)=O", "result": "< 10 nM"}
{"molecule": "CC(=O)N[C@H]1CCSC[C@@H](C(=O)N[C@@H](Cc2ccc(OCCN)cc2)C(=O)N[C@@H](Cc2c[nH]c3ccccc23)C(=O)N[C@@](C)(CCCCN)C(=O)N[C@@H](CCC(=O)O)C(=O)N[C@@H](CC(N)=O)C(=O)NCC(N)=O)NC(=O)[C@H](CCC(N)=O)NC(=O)[C@H](Cc2c[nH]c3ccccc23)NC(=O)[C@H]([C@@H](C)O)NC(=O)[C@H](CCC(N)=O)NC1=O", "result": "10 to 25 nM"}
{"molecule": "CC(=O)N[C@H]1CCSC[C@@H](C(=O)N[C@@H](Cc2ccc(OCCN)cc2)C(=O)N[C@@H](Cc2ccc3ccccc3c2)C(=O)NC2(C(=O)N[C@@H](CCC(=O)O)C(=O)N[C@@H](CC(N)=O)C(=O)N[C@@H](CC(N)=O)C(N)=O)CCC2)NC(=O)[C@H](CCC(N)=O)NC(=O)[C@H](Cc2c[nH]c3ccccc23)NC(=O)[C@H]([C@@H](C)O)NC(=O)[C@H](CCC(N)=O)NC1=O", "result": "< 10 nM"}
{"molecule": "CC(=O)N[C@H]1CCSC[C@@H](C(=O)N[C@@H](Cc2ccc(OCCN)cc2)C(=O)N[C@@H](Cc2ccc3ccccc3c2)C(=O)NC(C)(C)C(=O)N[C@@H](CCC(N)=O)C(=O)N[C@@H](CC(N)=O)C(=O)NCC(N)=O)NC(=O)[C@H](CCC(N)=O)NC(=O)[C@H](Cc2c[nH]c3ccccc23)NC(=O)[C@H]([C@@H](C)O)NC(=O)[C@H](CCC(N)=O)NC1=O (Ac-[Abu(4-yl)]QTWQC[AEF][2Nal][Aib]QNG-NH2; thioether 1-6)", "result": "10 to 25 nM"}
{"molecule": "COc1ccc(C[C@H](NC(=O)[C@H]2NC(=O)[C@H](CCC(N)=O)NC(=O)[C@H](Cc3c[nH]c4ccccc34)NC(=O)[C@H]([C@@H](C)O)NC(=O)[C@H](CCC(N)=O)NC(=O)[C@@H](NC(C)=O)CCSC2(C)C)C(=O)N[C@@H](Cc2ccc3ccccc3c2)C(=O)N[C@@](C)(CCCCN)C(=O)N[C@@H](CCC(=O)O)C(=O)N[C@@H](CC(N)=O)C(=O)NCC(N)=O)cc1", "result": "100 to 1000 nM"}
